# study.target: Cytochrome P450 3A4 (Homo sapiens) (UniProt P08684)
# Sequence (P08684 whole entry, looked up): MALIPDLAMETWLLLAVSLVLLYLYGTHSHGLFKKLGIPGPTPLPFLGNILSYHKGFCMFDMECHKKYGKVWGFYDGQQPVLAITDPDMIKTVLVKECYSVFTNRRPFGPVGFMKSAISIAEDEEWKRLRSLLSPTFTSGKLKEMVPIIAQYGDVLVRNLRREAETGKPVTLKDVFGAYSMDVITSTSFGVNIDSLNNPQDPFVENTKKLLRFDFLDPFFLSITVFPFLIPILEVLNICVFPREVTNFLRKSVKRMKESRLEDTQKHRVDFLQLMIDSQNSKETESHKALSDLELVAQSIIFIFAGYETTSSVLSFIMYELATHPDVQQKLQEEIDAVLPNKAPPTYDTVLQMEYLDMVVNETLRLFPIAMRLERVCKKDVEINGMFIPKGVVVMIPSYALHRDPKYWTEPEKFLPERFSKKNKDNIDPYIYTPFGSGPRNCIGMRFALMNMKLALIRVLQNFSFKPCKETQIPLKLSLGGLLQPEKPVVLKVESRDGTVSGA
# procedure.details: Cytochrome panel assay with activity outcomes
# reported.conditions: recombinant CYP, pro-luciferin dealkylation, luminescence, p450-cyp3a4; series mostly up to 57.1 µM
Out of some 16,000 compounds screened, about 5,100 (32%) were called active. About 25% were inconclusive and are not listed. Calls follow the shape of the dose curve; as a rule, active = well fitted curve in the direction sought with a large enough effect; inconclusive = small, poorly fitted or top-dose-only effect, or effect the other way; inactive = no such curve, though single readings can be large or run the other way. This is one part of the list.
Respond with a class label; see active, inactive

>>> cat("CC(=O)NCCNc1cc(-c2ccccc2C(F)(F)F)ncn1")
"inactive"
>>> cat("CC(=O)NCCNc1cc(-c2ccccc2C)ncn1")
"inactive"
>>> cat("CN(C)C(=O)/N=N\\C(=O)N(C)C")
"inactive"
>>> cat("CC(=O)NCCNc1ncncc1-c1ccccc1C(F)(F)F")
"active"
>>> cat("CC(=O)NCCNc1cc(-c2ccccc2CN(C)C)ncn1")
"inactive"

Please let me know the test result on file for "CC(=O)NCCNc1ncncc1-c1ccc(N(C)C)cc1" .
active

Dear colleague, could you share the recorded outcome for "C[n+]1cc(-c2ccccc2)n2c1CCCCC2" when you have a moment?
inactive
